# Tested on: beagle dogs
# run_description: canine telemetry protocol for blood pressure reduction efficacy
# Type: in vivo
# reported_conditions: male beagle dogs, 3 mg/kg oral gavage, 12-18 h
Reported ΔSBP (systolic blood pressure, change from baseline) 12-18 h is given for each of the following compounds.

In the examples that follow, each entry is paired with its recorded ΔSBP (systolic blood pressure, change from baseline) 12-18 h.
[[record]]
compound = "Cc1ncc2c(c1OC(=O)[C@H]1CC[C@H](O/N=[N+](\\[O-])N(C)C(C)(C)C)CC1)CO[C@H]2c1ccc(Cl)cc1 [Example 6]"
result = "−1 mm Hg"

[[record]]
compound = "Cc1ncc2c(c1OC(=O)CCCCO/N=[N+](\\[O-])N(C)C(C)(C)C)CO[C@H]2c1ccc(Cl)cc1 [Example 8]"
result = "−2 mm Hg"


[in] Given the compound Cc1ncc2c(c1OC(=O)CCCC(C)O/N=[N+](\[O-])N(C)C(C)(C)C)CO[C@H]2c1ccc(Cl)cc1 (stereo partly drawn) [Example 14] , what is its reported ΔSBP (systolic blood pressure, change from baseline) 12-18 h?
[out] 3 mm Hg

[in] // same read-out, input: Cc1ncc2c(c1OC(=O)[C@H]1CC[C@@H](O/N=[N+](\[O-])N(C)C(C)(C)C)CC1)CO[C@H]2c1ccc(Cl)cc1 [Example 5]
[out] 2 mm Hg

[in] Another compound to look at: Cc1ncc2c(c1OC(=O)CCC(C)CO/N=[N+](\[O-])N(C)C(C)(C)C)CO[C@H]2c1ccc(Cl)cc1 (stereo partly drawn) [Example 13]
[out] −4 mm Hg

[in] Request: Cc1ncc2c(c1OC(=O)O[C@@H](C)CCCCO/N=[N+](\[O-])N(C)C(C)(C)C)CO[C@H]2c1ccc(Cl)cc1 [Example 25]
[out] 0 mm Hg

----------
# System: beagle dogs
# run_description: canine telemetry protocol for blood pressure reduction efficacy
# Format: in vivo
# reported_conditions: male beagle dogs, 3 mg/kg oral gavage, 6-12 h
compounds and their reported ΔPP (pulse pressure, change from baseline) 6-12 h
Give just the number in mm Hg; leave the unit off.

Answered examples (2):
[[record]]
compound = "Cc1ncc2c(c1OC(=O)CCCC(C)O/N=[N+](\\[O-])N(C)C(C)(C)C)CO[C@H]2c1ccc(Cl)cc1 (stereo partly drawn)"
measured_target = "beagle dogs"
result_number = "−9"

[[record]]
compound = "Cc1ncc2c(c1OC(=O)CCCCO/N=[N+](\\[O-])N(C)C(C)(C)C)CO[C@H]2c1ccc(Cl)cc1"
measured_target = "beagle dogs"
result_number = "−8"


[in] Given the entry `Cc1ncc2c(c1OC(=O)[C@H]1CC[C@@H](O/N=[N+](\[O-])N(C)C(C)(C)C)CC1)CO[C@H]2c1ccc(Cl)cc1` , report its measured ΔPP (pulse pressure, change from baseline) 6-12 h.
[out] −3

[in] One more compound: `Cc1ncc2c(c1OC(=O)O[C@@H](C)CCCCO/N=[N+](\[O-])N(C)C(C)(C)C)CO[C@H]2c1ccc(Cl)cc1`
[out] −7

[in] Ok, now Cc1ncc2c(c1OC(=O)CCC(C)CO/N=[N+](\[O-])N(C)C(C)(C)C)CO[C@H]2c1ccc(Cl)cc1 (stereo partly drawn)
[out] −11

[in] Entry `Cc1ncc2c(c1OC(=O)[C@H]1CC[C@H](O/N=[N+](\[O-])N(C)C(C)(C)C)CC1)CO[C@H]2c1ccc(Cl)cc1` please
[out] −7
